# Test system: velvetleaf
# Experiment Summary: Test B pre/postemergence velvetleaf
# Type: in vivo, Abutilon theophrasti
# Condition Info: Preemergence, Rate 125 g/ha; scale of 0 to 10 where 0 is no effect and 10 is complete control
Measured Quantity: Plant response rating, Velvetleaf
Give the figure only, with no unit attached.

{"columns": ["Molecule", "Plant response rating, Velvetleaf"],
 "data": [
  ["CC(C)N(C(=O)n1oc(=O)n(CCCC#N)c1=O)c1ccccc1 [Compound 674]", 7],
  ["CC(C)N(C(=O)n1oc(=O)n(CCCC(F)(F)F)c1=O)c1ccc(F)cc1 [Compound 398]", 2],
  ["C=CC[Si](C)(C)Cn1c(=O)on(C(=O)N(c2ccc(Cl)cc2)C(C)C)c1=O [Compound 414]", 0],
  ["CCC(C)N(C(=O)n1oc(=O)n(C(C)C)c1=O)c1ccc(F)cc1 (stereo not shown) [Compound 689]", 3],
  ["CC(C)N(C(=O)n1oc(=O)n(C(C)Cl)c1=O)c1ccc(F)cc1 (stereo not shown) [Compound 393]", 0]
]}

Prompt: May I ask what Plant response rating, Velvetleaf has been recorded for CC(C)N(C(=O)n1oc(=O)n(C(C)C2CC2)c1=O)c1ccc(F)cc1F (stereo not shown) [Compound 720] ?
Response: 2

Prompt: Same question, CC(C)N(C(=O)n1oc(=O)n(C(C)C#N)c1=O)c1ccc(Cl)cc1 (stereo not shown) [Compound 451] this time
Response: 0

Prompt: Thanks! And CC(C)N(C(=O)n1oc(=O)n(C(C)CCl)c1=O)c1ccccc1 (stereo not shown) [Compound 411] ?
Response: 5

Prompt: Please give the result for CC(C)N(C(=O)n1oc(=O)[nH]c1=O)c1ccc(F)cc1F [Compound 391] too.
Response: 0

Prompt: And then CCn1ncc(Cn2c(=O)on(C(=O)N(c3ccc(Cl)cc3)C(C)C)c2=O)c1Cl [Compound 684] , what is it?
Response: 0

---

# Tested on: wild oat
# Experiment Summary: Test B pre/postemergence wild oat
# Type: in vivo, Avena fatua
# Condition Info: Postemergence, Rate 125 g/ha; scale of 0 to 10 where 0 is no effect and 10 is complete control
Quick reference for Wild oats plant response rating among some compounds
# answer = number (no unit)

{"columns": ["Query Smiles", "Target", "Measured Quantity", "Number"],
 "data": [
  ["Cc1ccccc1Cn1c(=O)on(C(=O)N(c2ccc(Cl)cc2)C(C)C)c1=O", "wild oat", "Wild oats plant response rating", 0]
]}

Prompt: What value of Wild oats plant response rating has been recorded for this entry: "CC[C@@H](C)n1c(=O)on(C(=O)N(c2ccc(Cl)cc2)C(C)C)c1=O"
Response: 0

Prompt: Further, for "CC(C)N(C(=O)n1oc(=O)n(CC(=O)C2CCC2)c1=O)c1ccc(Cl)cc1" ?
Response: 1

Prompt: Let us now turn to "CC(C)N(C(=O)n1oc(=O)n(CCCC#N)c1=O)c1ccccc1"
Response: 0

---

# System: surinam grass
# Experiment Summary: Test B pre/postemergence surinam grass
# Type: in vivo, Brachiaria decumbens
# Condition Info: Preemergence, Rate 125 g/ha; 0 is no effect, 10 is complete control
Measured Quantity: B. signalgrass plant response rating (0 to 10 scale)

{"columns": ["Compound", "Result"],
 "data": [
  ["CC(C)N(C(=O)n1oc(=O)n(-c2nc(Cl)sc2Cl)c1=O)c1ccc(F)cc1", 0],
  ["CC(C)N(C(=O)n1oc(=O)n(C(C)c2ccccc2)c1=O)c1ccc(F)cc1 (stereo not shown)", 2],
  ["CCOC(=O)Cn1c(=O)on(C(=O)N(c2ccc(F)cc2)C(C)C)c1=O", 0]
]}

Prompt: Looking for the measured B. signalgrass plant response rating (0 to 10 scale) of CC1CCCCC1n1c(=O)on(C(=O)N(c2ccc(F)cc2)C(C)C)c1=O (stereo not shown) , can you help?
Response: 0

Prompt: Now this one: "Cc1ccccc1-n1c(=O)on(C(=O)N(c2ccc(S(C)(=O)=O)cc2)C(C)C)c1=O"
Response: 0

Prompt: Record: "Cc1ccccc1Cn1c(=O)on(C(=O)N(c2ccc(Cl)cc2)C(C)C)c1=O"
Response: 3

Prompt: And the next one, "CC(C)N(C(=O)n1oc(=O)n(CCCl)c1=O)c1ccc(F)cc1" ?
Response: 5

---

Measured Plant response rating, Rape by item
# Tested on: rape
# Experiment Summary: Test B pre/postemergence rape
# Assay type: in vivo, Brassica napus
# Condition Info: Postemergence, Rate 62 g/ha; scale 0 to 10, 0 is no effect, 10 is complete control
Reply with just the number.

{"columns": ["Compound", "Plant response rating, Rape"],
 "data": [
  ["C=C(Cn1c(=O)on(C(=O)N(c2ccccc2)C(C)C)c1=O)C(C)(C)C", 0],
  ["CCOP(=O)(OCC)C(C)n1c(=O)on(C(=O)N(c2ccc(F)cc2F)C(C)C)c1=O (stereo not shown)", 2],
  ["CC(=O)N(C)CCn1c(=O)on(C(=O)N(c2ccc(F)cc2)C(C)C)c1=O", 0]
]}

Now look at this entry.
Prompt: Look up Plant response rating, Rape for this compound: "CC(C)N(C(=O)n1oc(=O)n(CCCC#N)c1=O)c1ccccc1"
Response: 0

---

# System: morningglory
# Experiment Summary: Test B pre/postemergence morningglory
# Assay type: in vivo, Ipomoea hederacea
# Condition Info: Postemergence, Rate 125 g/ha; scale of 0 to 10 where 0 is no effect and 10 is complete control
Recorded Morningglory plant response rating, one value per entry.
Write no unit; give the number alone.

Solved cases below.
{"columns": ["Compound", "Morningglory plant response rating"],
 "data": [
  ["CC(C)N(C(=O)n1oc(=O)n(-c2cnn(C)c2)c1=O)c1ccc(F)cc1", 0],
  ["CC(C)N(C(=O)n1oc(=O)n(CC(=O)C2CCC2)c1=O)c1ccc(Cl)cc1", 4]
]}

Prompt: If you can, please state the reported Morningglory plant response rating value of CC(C)N(C(=O)n1oc(=O)n(C(C)c2ccccc2)c1=O)c1ccc(F)cc1 (stereo not drawn) .
Response: 6

Prompt: Could you do the same for "CCOC(=O)Cn1c(=O)on(C(=O)N(c2ccc(F)cc2)C(C)C)c1=O" , please?
Response: 0

Prompt: Try this compound next: "C=C(Cn1c(=O)on(C(=O)N(c2ccccc2)C(C)C)c1=O)C(C)(C)C"
Response: 10

Prompt: What would you report for CC1CCCCC1n1c(=O)on(C(=O)N(c2ccc(F)cc2)C(C)C)c1=O (stereo not drawn) ?
Response: 5

---

Recorded Soybean plant response rating values for a group of molecules are listed next.
# Test system: soybean
# Experiment Summary: Test B pre/postemergence soybean
# Format: in vivo, Glycine max
# Condition Info: Preemergence, Rate 62 g/ha; scale 0 to 10 (0 no effect, 10 complete control)
Write the number on its own, no unit after it.

{"columns": ["Molecule", "Number"],
 "data": [
  ["CC(C)N(C(=O)n1oc(=O)n(C(C)c2ccccc2)c1=O)c1ccc(F)cc1 (stereo not shown) [Compound 134]", 0],
  ["CC(C)N(C(=O)n1oc(=O)n(CCCC(F)(F)F)c1=O)c1ccc(Cl)cc1 [Compound 555]", 0],
  ["CC(C)N(C(=O)n1oc(=O)n(CNC(=O)c2ccccc2)c1=O)c1ccc(F)cc1F [Compound 619]", 0]
]}

Note: attention shifts to another entry.
Prompt: Name the recorded Soybean plant response rating for CCn1c(=O)on(C(=O)N(c2ccc(F)cc2F)C(C)C)c1=O [Compound 116] .
Response: 0

---

# System: morningglory
# Experiment Summary: Test B pre/postemergence morningglory
# Type: in vivo, Ipomoea hederacea
# Condition Info: Rate 62 g/ha, Postemergence; scale of 0 to 10 where 0 is no effect and 10 is complete control
Measured Quantity: Morningglory plant response rating

Worked cases, Morningglory plant response rating given:
{"columns": ["Compound", "Morningglory plant response rating"],
 "data": [
  ["CC(C)Cn1c(=O)on(C(=O)N(c2ccc(F)cc2F)C(C)C)c1=O", 0],
  ["Cc1ccccc1-n1c(=O)on(C(=O)N(c2ccccc2F)C(C)C)c1=O", 3],
  ["CCOC(=O)Cn1c(=O)on(C(=O)N(c2ccc(F)cc2)C(C)C)c1=O", 0],
  ["CC(C)N(C(=O)n1oc(=O)n(C2CC2)c1=O)c1ccccc1", 5],
  ["CCC(C)N(C(=O)n1oc(=O)n(-c2ccccc2C)c1=O)c1ccc(F)cc1 (stereo not shown)", 1]
]}

Consider the record given below.
Prompt: Return reported Morningglory plant response rating; argument: COCC(C)n1c(=O)on(C(=O)N(c2ccc(F)cc2F)C(C)C)c1=O (stereo not shown)
Response: 0

---

Property: Blackgrass plant response rating; scope: individual compounds
# Test system: blackgrass
# Experiment Summary: Test B pre/postemergence blackgrass
# Assay type: in vivo, Alopecurus myosuroides
# Condition Info: Rate 500 g/ha, Postemergence; scale 0 to 10, 0 no effect, 10 complete control
Give your answer as a number; write no unit.

Below, each entry is followed by its recorded Blackgrass plant response rating result.
{"columns": ["Compound", "Measured Quantity", "Number"],
 "data": [
  ["Cc1cc(C)c(-n2c(=O)on(C(=O)N(c3ccc(F)cc3)C(C)C)c2=O)c(Br)c1 [Compound 224]", "Blackgrass plant response rating", 4],
  ["CCc1noc(C)c1-n1c(=O)on(C(=O)N(c2ccc(F)cc2)C(C)C)c1=O [Compound 101]", "Blackgrass plant response rating", 0],
  ["CCN(C(=O)n1oc(=O)n(Cc2cccs2)c1=O)C1CCCCC1 [Compound 82]", "Blackgrass plant response rating", 3]
]}

Prompt: Any idea what its Blackgrass plant response rating is? The compound is COc1ccc(N(C(=O)n2oc(=O)n(-c3ccccc3C)c2=O)C(C)C)cc1 [Compound 49]
Response: 0

Prompt: // next record CCC(C)N(C(=O)n1oc(=O)n(-c2ccccc2C)c1=O)c1ccc(F)cc1 (stereo not drawn) [Compound 239]
Response: 3

Prompt: Another compound: Cc1ccccc1-n1c(=O)on(C(=O)N(c2ccc3ccccc3c2)C(C)C)c1=O [Compound 306]
Response: 0
